assay: chemical genetic growth profiling, strain panel (AID 1159580);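 also: tested at 20 µM; growth read once vehicle control cultures reached saturation at 30 °C; 1 = growth at the plate median or of vehicle wells; lower values mean less growth of the strain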; settings: S. cerevisiae deletion strains, growth OD, locus YMR058W, strain fet3, hits give low values
Hit rate of the full screen: of about 5,500 compounds, about 2,000 (36%) were called active. Another 18% or so got no clear call; they are omitted. The list shows a part of the results.
PROPERTY MEASURED: normalized growth
Numbers only.

Use the examples below as a reference point.
| MOLECULE | MEASURED RESULT |
| --- | --- |
| CC(=O)[C@@]1(O)CCC2C3CCC4=CC(=O)CC[C@]4(C)C3CC[C@@]21C (some centres undefined) | 0.996 |
| CN[C@@H]1[C@@H](O[C@H]2O[C@H](CO)[C@@H](N)[C@H](O)[C@H]2O)O[C@H]2C[C@@H](N)[C@H](O[C@H]3[C@H](O)[C@@H](O)[C@H](N)C[C@@H]3N)O[C@@H]2[C@@H]1O | 1.02 |
| O=C1c2ccccc2C(=O)C1c1ccccc1 | 0.999 |

Please examine the following record next.
C[C@]12CCC(=O)C=C1CCC1C2[C@@H](O)C[C@@]2(C)C1CC[C@]2(O)C(=O)COC(=O)CCC(=O)O (some centres undefined) has a reported normalized growth of 1.02
